Reference for the values: ChEMBL document CHEMBL6109171

target or test system: Muscarinic acetylcholine receptors; M1 & M2 (Homo sapiens) (UniProt P11229+P08172)
method summary: Selectivity ratio of Ki for displacement of [3H]-NMS from human muscarinic M1 receptor to Ki for displacement of [3H]-NMS from human muscarinic M2 receptor
Type: protein assay
What Ratio Ki was measured for each of the following?
Give the figure only, with no unit attached.

Dear colleague, please send me the reported Ratio Ki for "Cc1cc(/C=C/c2cc3c4c(c2)CCCN4CCC3)cc(C)[n+]1CCN1CCN(CCCCC2CCN(CC(=O)N3c4ccccc4NC(=O)c4ccccc43)CC2)CC1" when you can.
5

Dear colleague, please send me the reported Ratio Ki for "CN(C)c1ccc2c(-c3ccc(C(=O)NCCNC(=O)CCc4cn(CCCCC5CCN(CC(=O)N6c7ccccc7NC(=O)c7ccccc76)CC5)cn4)cc3C(=O)[O-])c3ccc(=[N+](C)C)cc-3oc2c1" when you can.
3.4

Dear colleague, please send me the reported Ratio Ki for "O=C(CCCCCNC(=O)COc1ccc(/C=C/C2=[N+]3C(=Cc4ccc(-c5cccs5)n4[B-]3(F)F)C=C2)cc1)NCCNC(=O)CCc1cn(CCCCC2CCN(CC(=O)N3c4ccccc4NC(=O)c4ccccc43)CC2)cn1" when you can.
1.4
